Target Under Test: Human DGAT2 (hDGAT2) (Homo sapiens (Human))
Sequence (Q96PD7 whole entry): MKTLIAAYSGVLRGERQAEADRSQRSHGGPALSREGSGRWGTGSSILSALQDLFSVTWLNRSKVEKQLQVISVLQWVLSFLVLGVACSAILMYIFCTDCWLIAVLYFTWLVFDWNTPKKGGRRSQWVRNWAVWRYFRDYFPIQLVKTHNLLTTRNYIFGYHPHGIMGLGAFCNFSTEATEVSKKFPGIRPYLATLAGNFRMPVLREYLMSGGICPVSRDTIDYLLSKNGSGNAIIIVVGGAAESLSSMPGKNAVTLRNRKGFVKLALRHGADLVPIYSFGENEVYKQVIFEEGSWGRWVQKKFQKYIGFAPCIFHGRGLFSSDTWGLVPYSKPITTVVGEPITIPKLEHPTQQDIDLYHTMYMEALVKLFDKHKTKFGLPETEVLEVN
Assay Overview: In vitro DGAT2 assay, IC50 determination with hDGAT2 membrane fraction
Format: biochemical
Condition Parameters: geometric mean; background for complete inhibition of DGAT2 obtained with Example 196-A instead of the cyclopentanecarboxylic acid reference; read-out: DGAT2 IC50 (nM), values in the parentheses
Value Kind: IC50

compound=O=C([C@@H]1CCCN(c2ncc3nc(C4(n5cc(Cl)cn5)CC4)[nH]c3n2)C1)N1CCCC1 value_kind=IC50 result="26.2 nM"
compound=C[C@H](c1nc2cnc(N3CCC[C@@H](C(=O)N4CCCC4)C3)nc2[nH]1)n1cc(Cl)cn1 value_kind=IC50 result="32.9 nM"
compound=O=C([C@@H]1CCCN(c2ccc3nc(C4(n5cccn5)CC4)[nH]c3n2)C1)N1CCCC1 value_kind=IC50 result="238 nM"
